Target: CDK4/Cyclin D1 (Homo sapiens, UniProt P11802)
Sequence (P11802 whole entry): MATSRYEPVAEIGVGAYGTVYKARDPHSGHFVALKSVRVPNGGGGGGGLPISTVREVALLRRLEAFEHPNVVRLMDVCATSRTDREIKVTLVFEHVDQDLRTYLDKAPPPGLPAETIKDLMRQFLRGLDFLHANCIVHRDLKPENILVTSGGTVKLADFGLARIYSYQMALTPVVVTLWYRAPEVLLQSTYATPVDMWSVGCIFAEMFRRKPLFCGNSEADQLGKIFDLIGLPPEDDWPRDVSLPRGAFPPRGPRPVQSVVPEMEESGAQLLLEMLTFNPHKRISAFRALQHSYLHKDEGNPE
Sequence (P24385 whole entry partner): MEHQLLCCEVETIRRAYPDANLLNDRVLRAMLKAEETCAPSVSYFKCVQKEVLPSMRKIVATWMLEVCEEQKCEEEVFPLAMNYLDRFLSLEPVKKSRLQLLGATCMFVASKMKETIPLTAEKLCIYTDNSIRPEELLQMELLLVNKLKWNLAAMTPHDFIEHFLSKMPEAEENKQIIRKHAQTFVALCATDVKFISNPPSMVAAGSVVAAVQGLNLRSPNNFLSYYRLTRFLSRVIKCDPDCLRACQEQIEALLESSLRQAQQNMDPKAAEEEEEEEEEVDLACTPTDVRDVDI
Experiment: NanoBRET live-cell target engagement, NanoLuc-CDK4/Cyclin D1 in HEK-293
Format: binding
Details: CDK4/D1; experiment 2

molecule: CCn1cnc2c(Nc3cccc(Cl)c3)nc(N[C@@H]3CCCC[C@@H]3N)nc21 [CGP74514A]
Inhibition at 10µM (%): 81.2
//
molecule: CC(C)c1cnn2c(NCc3ccccc3-n3cccn3)nc(OC3CCCNC3)nc12 (stereo not drawn) [LDC4297]
Inhibition at 10µM (%): 64.0
//
molecule: CNc1nc(C)c(-c2nc(Nc3cccc(S(N)(=O)=O)c3)ncc2F)s1 [CDKI-73]
Inhibition at 10µM (%): 88.5
//
molecule: CN1CCC(c2c(O)cc(O)c3c(=O)cc(-c4ccccc4Cl)oc23)C1CO (stereo not drawn) [P276-00]
Inhibition at 10µM (%): 82.6
//
molecule: CS(=O)(=O)N1CCC(NC(=O)c2[nH]ncc2NC(=O)c2c(Cl)cccc2Cl)CC1 [NVP-LCQ195]
Inhibition at 10µM (%): 87.9
//
molecule: CC(C)c1c2cc(-c3ccnc(N[C@H]4CC[C@H](NC5CCOCC5)CC4)n3)ccc2nn1C [LY2857785]
Inhibition at 10µM (%): 96.5
